# Test system: CD2F1 mice, L1210 leukemia ip, survival T/C
# Assay Notes: NCI In Vivo Anticancer Drug Screen. Data for tumor model L1210 Leukemia (intraperitoneal) in CD2F1 (CDF1) mice
# Experimental Context: endpoint: mean survival time; dose: 12.5 mg/kg/injection; schedule: Q04DX003 (ip); vehicle: saline with Tween-80
Toxic doses and inconclusive results are not listed. The calls were made as follows: active = survival T/C of 150% or more; inactive = T/C below 125% in these data.
Hi there, use one of these labels in your reply, thanks! active, inactive

INSERT INTO measurements (molecule, system_name, group) VALUES
  ('CC12CCCCC1SC(F)(F)C2(F)F (stereo not drawn)', 'CD2F1 mice, L1210 leukemia ip, survival T/C', 'inactive'),
  ('N#CCCc1ccccc1', 'CD2F1 mice, L1210 leukemia ip, survival T/C', 'inactive'),
  ('CCn1c(N)c2c(ncn2Cc2ccccc2)nc1=S', 'CD2F1 mice, L1210 leukemia ip, survival T/C', 'inactive');

Query: Could you kindly confirm the outcome this assay logged for CCCCCCCCCCCCCCCC[n+]1ccc(C(N)=O)cc1 ?
Reply: inactive

Query: What did the test return for Cc1cccc2c(CBr)cc(=O)[nH]c12 ?
Reply: inactive

Query: I'd appreciate the recorded outcome for O=S(=O)(O)O.[NH-]C(c1ccccc1)C([NH-])c1ccccc1.[Pt+2] (stereo not drawn) from this test.
Reply: active

Query: Which outcome was entered for the molecule OC1C2CCC(C2)C1C(O)(C(F)(F)F)C(F)(F)F (stereo not drawn) in this test?
Reply: inactive

Query: What outcome does the record of this test show for O=C(O)CC(O)(CC(=O)O)C(=O)O.[Sn] ?
Reply: inactive

###

# System: CD2F1 mice, L1210 leukemia ip, survival T/C
# Assay Notes: NCI In Vivo Anticancer Drug Screen. Data for tumor model L1210 Leukemia (intraperitoneal) in CD2F1 (CDF1) mice
# Experimental Context: endpoint: mean survival time; dose: 25.0 mg/kg/injection; schedule: Q01DX009 (ip); vehicle: saline; higher = longer survival
Inconclusive results and toxic doses are left out.
Parameter T/C: see the listing below.

Some solved cases for reference:
INSERT INTO assay_data (compound, reported_property, endpoint_value) VALUES
  ('CCOC(=O)NNC(=O)OCC', 'T/C', '101 % of control'),
  ('CC(C)CCNc1ncnc2c1cnn2C', 'T/C', '97 % of control'),
  ('C1CCN(CN2CCCCC2)CC1', 'T/C', '98 % of control');

compound CCOP(=O)(OCC)OC(C)C#N (centres undefined) , T/C observed: 97 % of control

###

# System: CD2F1 mice, L1210 leukemia ip, survival T/C
# Assay Notes: NCI In Vivo Anticancer Drug Screen. Data for tumor model L1210 Leukemia (intraperitoneal) in CD2F1 (CDF1) mice
# Experimental Context: endpoint: mean survival time; dose: 50.0 mg/kg/injection; schedule: Q01DX001 (ip); vehicle: saline; higher = longer survival
Inconclusive results and toxic doses are left out.
Reported Property: T/C

Worked cases, answers included:
INSERT INTO measurements (molecule, endpoint_value) VALUES
  ('COC(=O)C(N)CCCCNc1ccc2c(cc1=O)C(NC(C)=O)CCc1cc(OC)c(OC)c(OC)c1-2 (stereo not given)', '94 % of control'),
  ('O=C(O)C(CO)C(CO)C(=O)O (stereo not given)', '107 % of control');

Sure, the documented T/C for O=C1OC(C(=O)O)Cc2ccccc21 (stereo not given) is 102 % of control

Query COc1ccc(Cl)cc1Cn1ccnc1 yields T/C of 104 % of control

Item: N=C(N)SCc1ccccc1 | T/C: 100 % of control

###

# Test system: CD2F1 mice, L1210 leukemia ip, survival T/C
# Assay Notes: NCI In Vivo Anticancer Drug Screen. Data for tumor model L1210 Leukemia (intraperitoneal) in CD2F1 (CDF1) mice
# Experimental Context: endpoint: mean survival time; dose: 6.25 mg/kg/injection; schedule: Q04DX003 (ip); vehicle: saline with Tween-80; higher = longer survival
Toxic doses and inconclusive results are not listed.
Reported Property: T/C

Record excerpt, results attached:
INSERT INTO assay_data (compound, reported_property, endpoint_value) VALUES
  ('CN(C)c1ccc(/C=N/NC(=O)c2ccccc2)cc1', 'T/C', '96 % of control'),
  ('OC1C2CCC(C2)C1C(O)(C(F)(F)F)C(F)(F)F (centres undefined)', 'T/C', '98 % of control'),
  ('O=C(O)c1ccccc1C(=O)c1ccc(CBr)cc1', 'T/C', '93 % of control');

Consider the record given below.
Kindly note the recorded T/C for c1ccc(CCN2CCCCC2)nc1 , which is 93 % of control

###

# System: CD2F1 mice, L1210 leukemia ip, survival T/C
# Assay Notes: NCI In Vivo Anticancer Drug Screen. Data for tumor model L1210 Leukemia (intraperitoneal) in CD2F1 (CDF1) mice
# Experimental Context: endpoint: mean survival time; dose: 50.0 mg/kg/injection; schedule: Q01DX001 (ip); vehicle: saline with Tween-80
Inconclusive results and toxic doses are left out. The calls were made as follows: active = survival T/C of 150% or more; inactive = T/C below 125% in these data.
API: response.call in 1 (yes) = active, 0 (no) = inactive

INSERT INTO results (compound, group) VALUES
  ('Nc1nc(N)c(-c2ccc(Cl)cc2)c(COc2ccc(CCC3(CCl)OCCO3)cc2)n1', '0 (no)'),
  ('O=NN(CCCl)C(=O)NC1CCN(Cc2ccccc2)CC1', '1 (yes)'),
  ('CN(N=O)C(=O)NC1C(CO)OC(n2ccc(N)nc2=O)C1O (stereo unspecified)', '0 (no)'),
  ('O=c1[nH][nH]c(=O)c2c1oc1c(=O)[nH][nH]c(=O)c12', '0 (no)');

Query: Hi, sorry to bother you, what did the test record for OC12CC3CC(CC(C3)C1)C2 ?
Reply: 0 (no)

Query: Per the records of this test, what outcome belongs to CN(C)c1ccc(NC(=S)Nc2ccc(N(C)C)cc2)cc1 ?
Reply: 0 (no)

###

The entries below come with measured T/C values attached.
# Tested on: CD2F1 mice, L1210 leukemia ip, survival T/C
# Assay Notes: NCI In Vivo Anticancer Drug Screen. Data for tumor model L1210 Leukemia (intraperitoneal) in CD2F1 (CDF1) mice
# Experimental Context: endpoint: mean survival time; dose: 200.0 mg/kg/injection; schedule: Q04DX003 (ip); vehicle: saline; higher = longer survival
# Protocol: The antitumor activity of compounds was measured in mice bearing transplantable tumors. Survival or tumor size were measured and the results are expressed as the measurement made in the treated group (T) divided by the measurement made in the vehicle treated control group (C). The tumor model used in this assay is L1210 Leukemia (intraperitoneal) in CD2F1 (CDF1) mice
Toxic doses and inconclusive results are not listed.

INSERT INTO measurements (compound, endpoint_value) VALUES
  ('O=C(c1ccccc1)C12CC3CC1C2C3', '100 % of control');

Reported T/C ( COCCCN1CCN(c2ccccc2OC)CC1 ) = 104 % of control

// T/C value for CCOC(=O)c1cnc(N(C)C)nc1SC(=N)N : 91 % of control

###

# Test system: CD2F1 mice, L1210 leukemia ip, survival T/C
# Assay Notes: NCI In Vivo Anticancer Drug Screen. Data for tumor model L1210 Leukemia (intraperitoneal) in CD2F1 (CDF1) mice
# Experimental Context: endpoint: mean survival time; dose: 25.0 mg/kg/injection; schedule: Q04DX003 (ip); vehicle: saline with Tween-80; higher = longer survival
Toxic doses and inconclusive results are not listed.
Reported Property: T/C

INSERT INTO results (compound, endpoint_value) VALUES
  ('Nc1ncnc(N)c1NC(=O)c1cccc(Cl)c1', '100 % of control'),
  ('Cc1cccnc1NC(=O)/C=C/C(=O)O', '101 % of control'),
  ('O=[N+]([O-])c1cc(C(F)(F)F)ccc1F', '110 % of control');

compound O=C(O)c1ccccc1C(=O)c1ccc(CBr)cc1 , T/C observed: 101 % of control

Sample Nc1ncnc(N)c1NC(=O)c1ccc(-c2ccccc2)cc1 ; T/C observed: 92 % of control

###

# Test system: CD2F1 mice, L1210 leukemia ip, survival T/C
# Assay Notes: NCI In Vivo Anticancer Drug Screen. Data for tumor model L1210 Leukemia (intraperitoneal) in CD2F1 (CDF1) mice
# Experimental Context: endpoint: mean survival time; dose: 75.0 mg/kg/injection; schedule: Q01DX001 (ip); vehicle: saline; higher = longer survival
Inconclusive results and toxic doses are left out.
Quick list: T/C per entry.

Here is how some compounds turned out for T/C.
INSERT INTO assay_data (compound, reported_property, endpoint_value) VALUES
  ('NC(N)=N/N=C(\c1ccc(C(F)(F)F)cc1)c1ccc(Cl)c(Cl)c1', 'T/C', '91 % of control'),
  ('CN(C)CCCN(C)CCCN(C)C', 'T/C', '104 % of control'),
  ('NC1CCCN(Cc2ccccc2)C1 (centres undefined)', 'T/C', '95 % of control'),
  ('NC(N)=N/C(N)=N\c1cnc([N+](=O)[O-])s1', 'T/C', '96 % of control'),
  ('O=c1c2nccnc2nc2n1CCCCC2', 'T/C', '100 % of control'),
  ('Oc1ccc(O)cc1', 'T/C', '107 % of control'),
  ('COc1ccc(CC(N)C(=O)NC2C(CO)OC(n3cnc4c(N)ncnc43)C2O)cc1 (centres undefined)', 'T/C', '100 % of control'),
  ('Cc1ncc2c(n1)NC(c1ccc(Cl)cc1Cl)NC2 (centres undefined)', 'T/C', '101 % of control');

The record that follows has no T/C shown yet.
Documented T/C of CN(CCN1CCCCC1)C(=O)C(O)(c1ccccc1)c1ccccc1 : 104 % of control
